test system: Hepatitis B virus (human); assay: Antiviral activity against HBV in human HepG2(2.2.15) cells assessed as reduction of viral DNA level after 9 days by RT-PCR analysis; settings: HepG2 2.2.15, 216 h
Answer each item with its documented log10(IC50).
Units before log transform: µM; reported quantity: IC50; transform: log10.

- compound: "O=C(OC1CC(=O)N2C[C@@H]3CCCN4CCC[C@@H]([C@H]34)[C@H]2C1)c1ccccc1 (some centres not stated)"
  system-under-test: "Hepatitis B virus (human)"
  reported-metric: "log10(IC50)"
  quantitative-readout: 1.21
- compound: "O=C1CC(OCc2ccccc2)C[C@@H]2[C@H]3CCCN4CCC[C@@H](CN12)[C@@H]34 (some centres not stated)"
  system-under-test: "Hepatitis B virus (human)"
  reported-metric: "log10(IC50)"
  quantitative-readout: 1.16
- compound: "CC(Cl)C(=O)OC1C[C@@H]2[C@H]3CCCN4CCC[C@@H](CN2C(=O)C1O)[C@@H]34.Cl (some centres not stated)"
  system-under-test: "Hepatitis B virus (human)"
  reported-metric: "log10(IC50)"
  quantitative-readout: 2.77
- compound: "CNC1CC(=O)N2C[C@@H]3CCCN4CCC[C@@H]([C@H]34)[C@H]2C1 (some centres not stated)"
  system-under-test: "Hepatitis B virus (human)"
  reported-metric: "log10(IC50)"
  quantitative-readout: 2.23
- compound: "CCOC(=O)OC1C[C@@H]2[C@H]3CCCN4CCC[C@@H](CN2C(=O)C1O)[C@@H]34 (some centres not stated)"
  system-under-test: "Hepatitis B virus (human)"
  reported-metric: "log10(IC50)"
  quantitative-readout: 1.38
- compound: "Cl.O=C(OC1C[C@@H]2[C@H]3CCCN4CCC[C@@H](CN2C(=O)C1O)[C@@H]34)c1ccccc1 (some centres not stated)"
  system-under-test: "Hepatitis B virus (human)"
  reported-metric: "log10(IC50)"
  quantitative-readout: 1.63

Now take the following compound into account.
Input line: Need log10(IC50), item CC(=O)OC1C[C@@H]2[C@H]3CCCN4CCC[C@@H](CN2C(=O)C1O)[C@@H]34.Cl (some centres not stated)
Output line: 2.54

---

tested on: Hepatitis B virus (human); test: Antiviral activity against HBV in human HepG2(2.2.15) cells assessed as reduction of viral DNA level after 9 days by RT-PCR analysis; conditions: HepG2 2.2.15, 216 h
Answer each item with its documented log10(IC50).
Units before log transform: µM; reported quantity: IC50; transform: log10.

- compound: "O=C1C(OCc2ccccc2)C(OCc2ccccc2)C[C@@H]2[C@H]3CCCN4CCC[C@@H](CN12)[C@@H]34 (some centres not stated)"
  log10(IC50): 0.44
- compound: "O=C1C(O)C(O)C[C@@H]2[C@H]3CCCN4CCC[C@@H](CN12)[C@@H]34 (some centres not stated) [13,14-DIHYDROXYMATRINE]"
  log10(IC50): 1.67
- compound: "Cl.O=C(CCl)OC1C[C@@H]2[C@H]3CCCN4CCC[C@@H](CN2C(=O)C1O)[C@@H]34 (some centres not stated)"
  log10(IC50): 1.15
- compound: "COC1CC(=O)N2C[C@@H]3CCCN4CCC[C@@H]([C@H]34)[C@H]2C1 (some centres not stated)"
  log10(IC50): 2.08
- compound: "CCOC1CC(=O)N2C[C@@H]3CCCN4CCC[C@@H]([C@H]34)[C@H]2C1 (some centres not stated)"
  log10(IC50): 0.98

Would you mind listing log10(IC50) for each of the following compounds?
1. O=C1CC(C[N+](=O)[O-])C[C@@H]2[C@H]3CCCN4CCC[C@@H](CN12)[C@@H]34 (some centres not stated)
2. O=C(O)P(=O)(O)O

Output line:
1. 1.74
2. 2.03

Data provenance: ChEMBL document CHEMBL1671816
